- TEST TARGET: OBP21 (Apis mellifera, UniProt A0ACM8Q9Q6)
- Construct: purified recombinant protein
- Sequence (A0ACM8Q9Q6 17-135): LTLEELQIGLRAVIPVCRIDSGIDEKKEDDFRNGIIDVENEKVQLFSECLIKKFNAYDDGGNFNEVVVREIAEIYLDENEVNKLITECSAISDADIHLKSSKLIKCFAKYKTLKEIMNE
- PROTOCOL NOTES: biochemical
- Design: competitive fluorescence displacement of 1-NPN (2 uM) from recombinant OBP, emission 380-450 nm
ENDPOINT NAME: Kd (µM)

Worked cases, Kd given:
COc1ccccc1/C=C/C=O; 33.9
CCCCCC(C)=O; 33.9
COC(=O)c1ccc(O)cc1 [Methyl p-hydroxybenzoate]; 8.5
CC(C)=CCCC(C)CC=O (centres unmarked); 13.6

a: CCCCCCCCCCCC(=O)O
b: CC(=O)CCCCCCCC(=O)O
c: CC(=O)OCCc1ccccc1 [2-Phenylethyl acetate]
d: CCCCCCCC/C=C\CCCCCCCC(N)=O [Oleamide]
Lookup: List these items ordered by Kd, big to small. In your reply, arrange the labels in the requested order.
Found: c, a, b, d

====

- TEST TARGET: Odorant binding protein 16 (OBP16) (Apis mellifera, UniProt A0ACM8Q9Q1)
- Construct: recombinant mature protein
- Sequence (A0ACM8Q9Q1 17-135): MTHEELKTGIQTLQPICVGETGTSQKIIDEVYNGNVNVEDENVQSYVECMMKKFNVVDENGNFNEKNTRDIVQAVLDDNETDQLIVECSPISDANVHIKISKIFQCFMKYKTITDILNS
- PROTOCOL NOTES: biochemical
- Set-up: competitive fluorescence displacement of 2 uM 1-NPN from purified recombinant OBP (2 uM), Tris pH 7.4
- RECORDED CONDITIONS: KD calculated from IC50 of 1-NPN displacement
- Protocol: The probe was excited at 337 nm and emission spectra were recorded between 380 and 450 nm. […] For determining binding constants, the intensity values corresponding to the maximum of fluorescence emission were plotted against free ligand concentrations. Bound ligand was evaluated from the values of fluorescence intensity assuming that the protein was 100% active, with a stoichiometry of 1:1 protein:ligand at saturation. The curves were linearized using Scatchard plots. […]
ENDPOINT NAME: Kd (µM)

A: COc1cc(CC(=O)O)ccc1O [Homovanillic acid]
B: CCCCCCCC/C=C\CCCCCCCC(N)=O [Oleamide]
C: CC(=O)CC/C=C(\C)CCC=C(C)C [Geranylacetone]
D: COc1cc(CCO)ccc1O [Homovanillic alcohol]
E: Cc1ccccc1C=CC=O [2-Methylcinnamaldehyde]
Lookup: In this exercise, place the 5 compounds in ascending sequence of their recorded Kd. In your reply, arrange the labels in the requested order.
Found: B, C, E, D, A
(B: 0.4 µM, C: 0.8 µM, E: 3.2 µM, D: 4.8 µM, A: 8.3 µM)

====

- TEST TARGET: Odorant binding protein 18 (OBP18) (Apis mellifera, UniProt A0ACM8Q9Q2)
- Construct: recombinant mature protein
- Sequence (A0ACM8Q9Q2 17-135): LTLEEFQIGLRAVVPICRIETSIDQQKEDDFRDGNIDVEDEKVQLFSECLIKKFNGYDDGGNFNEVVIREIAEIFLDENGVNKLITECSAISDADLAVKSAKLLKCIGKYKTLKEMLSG
- PROTOCOL NOTES: biochemical
- Parameters: competitive fluorescence displacement of 2 uM 1-NPN from purified recombinant OBP (2 uM), Tris pH 7.4
- RECORDED CONDITIONS: IC50 against 2 uM 1-NPN
ENDPOINT NAME: IC50 (nM)

Worked cases, IC50 given:
CCCCCCCCCCCCCCCC(=O)OC [Methyl palmitate]; 200
C=CC(C)(O)CCC=C(C)C (stereo not drawn); 3000
OCCc1ccccc1; 2500
CCCCCCCCCCCCCCCC(=O)OCC [Ethyl palmitate]; 200

a: OCc1ccccc1
b: CC(=O)OC/C=C(\C)CCC=C(C)C [geranyl acetate]
Lookup: Identify the item whose IC50 is the smaller number: a or b Answer with the label corresponding to your selection.
Found: b

I: COC(=O)c1ccc(O)cc1 [Methyl p-hydroxybenzoate]
II: COc1cc(CC(=O)O)ccc1O
Lookup: When I and II are compared, which has the higher number for IC50? Answer with the label corresponding to your selection.
Found: II
